- STUDY TARGET: Glucocorticoid receptor (Homo sapiens)
- PROCEDURE SUMMARY: GR-EFC Redistribution (AID 451); note: potency is the fitted concentration of half-maximal effect
- EXPERIMENTAL CONTEXT: CHO-K1 GR-EFC translocation, beta-gal luminescence, 2 h
- Procedure: NIH Molecular Libraries Screening Centers Network [MLSCN] NIH Chemical Genomics Center [NCGC] The glucocorticoid receptor (GR) is a cytoplasmic receptor that belongs to the nuclear receptor family of ligand-dependent transcription factors. […] GR-translocation was measured beta-gal enzyme activity using the PathHunter Detection Kit containing cell membrane permeablizing reagent and beta-gal substrate (DiscoveRx, Fremont, CA). […] Read plate in luminescence mode in ViewLux plate reader (PerkinElmer) […]
Active and inactive are the calls of the source. Calls come from the whole dose curve.
Each entry below carries its recorded Potency.

For orientation, consider the following solved cases.
{"columns": ["SMILES CODE", "RESULT"],
 "data": [
  ["COc1ccc2c(c1OC)CN1CCc3cc4c(cc3[C@H]1C2)OCO4", "> 20.6 µM (inactive)"],
  ["c1ccc(N2CC[C@@]3(CCCNC3)C2)cc1", "> 46 µM (inactive)"],
  ["O=C(c1ccco1)N1CCC[C@@]2(CCN(Cc3ccncc3)C2)C1", "> 46 µM (inactive)"]
]}

Recorded Potency (compound CC[N@+]1(C)CCC[C@@H](OC(=O)C(O)(c2ccccc2)c2ccccc2)C1 ): > 20.6 µM (inactive)

So, CO[C@@H](C)[C@](O)(C(=O)OCC1=CCN2CC[C@@H](O)[C@H]12)C(C)C ? Its Potency was > 20.6 µM (inactive)

====

- Test system: CP191
- PROCEDURE SUMMARY: qHTS profiling for inhibitors of Plasmodium falciparum proliferation (AID 504749); note: nearly all actives have a fitted effect of over 60% in size
- EXPERIMENTAL CONTEXT: P. falciparum in erythrocytes, SYBR Green DNA, 72 h; series mostly up to 28.7 µM
Records with an inconclusive call do not appear. Active and inactive are the calls of the source. Calls follow the shape of the dose curve; as a rule, active = well fitted inhibition curve with a large enough effect; inconclusive = small, poorly fitted or top-dose-only effect; inactive = flat fitted curve, though single readings scatter.
I would appreciate it if you answered using one of these outcomes: active, inactive

For orientation, consider the following solved cases.
{"columns": ["COMPOUND", "GROUP LABEL"],
 "data": [
  ["CNC(C)[C@@H](O)c1ccc(O)cc1 (some centres not stated)", "inactive"],
  ["CC(C)c1c(CN(C)[C@@H](C)Cc2ccccc2)n(C)n(-c2ccccc2)c1=O", "inactive"],
  ["[Hg+][c]1ccccc1", "inactive"]
]}

Task: What classification did O=C1C=C2C=CC3C[C@@]2(O1)C1CCCCN31 (some centres not stated) end up with in this test?
Output: active

Task: For CC(C)(O)C1C2OC(=O)C1[C@]1(O)C[C@H]3O[C@]34C(=O)O[C@H]2[C@]14C (some centres not stated) (tested in a mixture with another compound) , which call appears in the assay record?
Output: inactive

Task: Called result for C[C@H]1CN(C2CCC(C#N)(c3ccc(F)cc3)CC2)CC[C@@]1(C(=O)O)c1ccccc1 (some centres not stated)
Output: inactive

Task: Per the records of this test, what outcome belongs to CC([C@H](O)c1ccccc1)N(C)C (some centres not stated) ?
Output: inactive

Task: Identify the outcome logged in this assay for the compound shown: CNc1ccc(C(=O)CC(O)CCC(C)C2OC(=O)CC(O)CC(=O)CC(O)CC(O)CC(O)CC(O)CC3(O)CC(O)C(C(=O)OC)C(CC(O[C@@H]4OC(C)C(O)C(N)C4O)/C=C/C=C/C=C/C=C/C=C/C=C/C=C/C2C)O3)cc1 (some centres not stated)
Output: inactive

Task: What classification did CCNC[C@H](O)c1cccc(O)c1 end up with in this test?
Output: inactive

Task: Which outcome was assigned to C[N+]1([O-])[C@@H]2CC[C@H]1CC(OC(=O)[C@@H](CO)c1ccccc1)C2 (some centres not stated) in this test?
Output: inactive

Task: Field: outcome | Entry: CC[C@]1(c2cccc(O)c2)CCCCN(C)C1
Output: inactive

Task: Which outcome was entered for the compound COc1cc(N)c(Cl)cc1C(=O)N[C@@H]1CN2CCC1CC2 in this test?
Output: inactive
